Property: melting point; scope: individual compounds

Study these solved cases before continuing.
• C#CCOc1cc(Oc2ccccc2C)ncn1 = 64.8 °C
• CN(Cc1cc2c(-c3ccccc3)c(CC(=O)Nc3ccc(Cl)cc3C(F)(F)F)c(=O)oc2cc1Cl)C(=O)c1ccccc1 = 215 to 216 °C
• O=C1CNc2ncc(I)cc2N1Cc1ccc(C(F)(F)F)o1 = 189 to 191 °C

Kindly review the next compound as well.
Requested read-out: melting point. Entry: OC[C@H]1O[C@@H]1c1ccc(Cl)cc1
59 to 68 °C

====

quantityMeasured: melting point

Some entries whose results are on file:
• O=C(NCCN1CCCC1)Nc1ccc(-c2cnc(COCc3cc4ccccc4o3)o2)cc1 = 124 to 126 °C
• CN1C(=O)CN=C(c2ccccc2Cl)c2cccn21 = 132 to 134 °C
• CCCCCCNC(C)=C1C(=O)OC(=O)C(C(C)=O)=C1O = 80 to 82 °C
• COc1cc2c3c(cccc3c1)C(=O)c1ccccc1-2 = 168 to 169 °C
• COc1cc(C(C)C)c(NC(=O)CN2CCN(CCCSc3nc4ccccc4o3)CC2)c(C(C)C)c1 = 129 to 130 °C
• CNC(=O)COC[C@@H]1CC(c2ccc(-c3ccc(N4C[C@H](Cn5ccnn5)OC4=O)cc3F)cn2)=NO1 = 153 to 156 °C
• CC[C@@]1(C=O)CCCN(CCc2c[nH]c3ccc(F)cc23)C1=O = 116 °C
• CCCCNC(=O)c1ccc(Cl)c(-n2nc(CCCC)n(Cc3ccc(Br)cc3F)c2=O)c1 = 114 to 116 °C

Could you share which melting point value was measured for CC(C)(C)OC(=O)N[C@@H](Cc1ccccc1)[C@@H](O)C[C@@H](Cc1ccccc1)c1ncn[nH]1 ?
187 to 188 °C

Which value of melting point has been reported for COc1cc2c(Nc3ccc(Sc4nccn4C)c(Cl)c3)c(C#N)cnc2cc1/C=C/CCN(C)C in the records?
215 to 225 °C

Looking for the measured melting point of CC(O)(c1nc2ccc(S(=O)(=O)c3ccccc3)cc2c(=O)[nH]1)C(F)(F)F (configuration not stated) , can you help?
202 to 204 °C

Item CCC(=O)c1ccn(S(=O)(=O)c2ccccc2)c1C has what recorded melting point?
105 to 110 °C

====

# reported melting point; entries follow

Give the measured melting point of O=C(CCC(=O)N1CCCCC1c1ccccc1)c1ccc2c(c1)CCN(C(=O)C(F)(F)F)CC2 (stereo not given) .
132 to 133 °C

Requested field: melting point. Item: COC1CCN2C(=O)c3cccc([N+](=O)[O-])c3C2C1 (stereo not given)
132 to 134 °C

Which melting point value belongs to CCOC(=O)c1c(O)cc(C(F)(F)Cl)nc1C(F)(F)F ?
56.5 to 58.5 °C

Name the recorded melting point for CCNc1ccc2[nH]cc(C3CCN(C)CC3)c2n1 .
132 to 134 °C

Bench note: what melting point did CC1(CC(=O)Nc2ccccc2)OCCc2c1[nH]c1ccccc21 (stereo not given) show?
205 to 208 °C

====

Each entry below lists one item and its recorded melting point value.

Reference set (2 entries):
- CC1(CN2CCC(S(=O)c3ccc(OC(F)(F)F)cc3)CC2)Cn2cc([N+](=O)[O-])nc2O1 (stereo not drawn): 107 to 109 °C
- Cc1cc(-c2nc3cccnn3c2-c2ccnc(NC(=O)CC(F)(F)F)c2)ccc1F: 220 to 221 °C

Alright, here's another molecule for you.
// query melting point value for entry N#CCCNC(=O)c1cccc(-c2cccc(Oc3cccc(Cl)c3)n2)c1
139 to 140 °C

====

quantityMeasured: melting point (°C)

a = CC1(C)CCS(=O)(=O)N1
b = Cc1cccc(SCc2ccc3nc(NC4CCN(C)CC4)n(Cc4nc(C)ccc4O)c3c2)c1
Choose between a and b : whose measured melting point value is numerically larger? To answer, give the label that identifies your chosen option.
b

====

quantityMeasured: melting point

Consider the following illustrative entries.
* CC(=O)OC1=C(OC(C)=O)C(=O)c2cc(Cl)ccc2C1=O | 110 to 111 °C
* CCC1(C)Cc2ccc(C(C)C(=O)O)cc2C1 (centres undefined) | 165 to 167 °C
* CN1C(=O)Cn2c(C(=O)N3CCOCC3)nnc2-c2cc(Cl)ccc21 | 200 to 201 °C
* NC(=O)C(Oc1ccc(Cl)cc1)(C(F)(F)F)C(F)(F)F | 77 to 79 °C
* CN1C(=O)OCCc2cc(Nc3ncc(Cl)c(Nc4c(F)cccc4OCCO)n3)ccc21 | 199 to 201 °C
* CCC1Cc2c(C)c(OCC(=O)O)c(C)c(C)c2C1=O (centres undefined) | 136 to 137 °C
* CNC(=O)c1cc2c(Oc3ccc(-c4noc(C(F)(F)F)n4)cc3)cncc2s1 | 174 to 176 °C
* CN=C1N(C)C(=O)CN1c1ccc(Cl)cc1 | 150 to 152 °C

Give its melting point value. Item: N#CC1CCc2cc(C(N)=O)ccc2C1 (centres undefined)
180 to 182 °C

Report melting point for C#CCNC(=NCCSCc1ccccn1)NC#N please.
124 to 130 °C

Item c1ccc(C(CCN2CC3=C(C2)c2cccc4cccc3c24)(c2ccccc2)c2ccccc2)cc1 has what recorded melting point?
159 to 168 °C

May I ask what melting point has been recorded for C#CC(O)COc1ccc(F)cc1 (centres undefined) ?
46 to 47 °C

Suppose we examine the compound Nc1ncnn1C(=S)NCc1ccccc1 ; what melting point value has been reported?
157 to 158 °C

Any idea what melting point was measured for Cc1cc(C)cc(CON2C(=O)COc3ccc(C=C4SC(=S)NC4=O)cc32)c1 ?
> 300 °C

Using the record for O=c1ccn(CCO)c(Cc2ccccc2)c1O , report its melting point.
228 to 230 °C

Consider the compound shown here: Clc1ccc(OCc2ccccc2)c(OCc2ccccc2)c1Cl What is its recorded melting point?
74 to 75.5 °C

Record request: melting point value, item CNc1nc(-c2cccc(N)c2)cs1
118 to 121 °C

Fill in: melting point of COc1ccc(C(=O)c2ccc(-c3ccc(Cl)cc3)nc2)cc1OC is ___
168 to 170 °C

Consider the compound shown here: C=CCn1ccc2cc(NC(=O)c3nc4ccc(Cl)cc4n3Cc3ccccc3)ccc21 What is its recorded melting point?
154 to 155 °C

So what does the record say about melting point for CCOC(=O)c1cc(=NS(=O)(=O)c2ccccc2)c2c(Cl)cc(Cl)cc2[nH]1 ?
184 to 185 °C

Please look up its melting point: Cc1cccc(-c2[nH]c(C(C)C)nc2-c2cccc(-c3ccc4c(c3)C(=O)CCS4(=O)=O)c2)n1
115 to 119 °C

I have this compound here, CC1=C(c2ccc(O)cc2)C(=O)c2cc(O)ccc21 , and I need its recorded melting point.
125 to 129 °C

Name the reported melting point value associated with the compound c1cc(N2CCNCC2)cnn1
> 300 °C

Given the compound CC(C)c1ccc(C2COc3cc(O)c(O)cc3C2)cc1 (centres undefined) , what is its reported melting point?
129 to 131 °C

====

quantityMeasured: melting point

Study these solved cases before continuing.
• CCOC(=O)CCNC(=O)c1oc2cc(-c3ccc(Cn4c(C)nc5ccccc54)cc3)ccc2c1C = 196 to 197 °C
• Cc1ccc(Sc2ccnc3sc(C(N)=O)cc23)cc1 = 280 to 282 °C
• CCc1c(-c2ccc(OCc3ccccc3)cc2)c2cc(C(C)=O)c3ccc(OCc4ccccc4)c1n32 = 147 to 149 °C

Value lookup for melting point; key = CCCCCCCCCCCCCCCCCCCC(C)=O
41 to 42 °C

Bench note: what melting point did CCCCCCCCCCC(=O)OCCCCCC(=O)CC(=O)c1ccccc1 show?
37 to 38 °C

Give its melting point value. Item: CCN(CC)C(=O)Oc1c2c(nn1-c1ccc(F)cc1)CCc1cc(F)ccc1-2
141 to 142 °C

====

Residues, ends and D or L forms follow the SMILES beside them.
quantityMeasured: melting point

- CCOCc1nc2c(N)nc3ccccc3c2n1CCCCS(=O)(=O)N(C)C: 173 to 174 °C

What does the record list as melting point for O=[N+]([O-])c1cccc(C2C3=C(CCCS3)NC3=C2SCCC3)c1 ?
> 260 °C

Fill in: melting point of CCOC(=O)CCCN1C(=O)c2ccc(N/C(=C3\C(=O)Nc4ccccc43)c3ccccc3)cc2C1=O is ___
78 to 80 °C

Fill in the blank: the reported melting point of CN(C)c1cc(F)c(S(=O)(=O)N(C)C)cc1-n1c(=O)cc(C(F)(F)F)n(C)c1=O is ____.
185 to 194 °C

Look at this compound and give its reported melting point. CC(C)n1nc(-c2sc(Nc3cccc4ccccc34)nc2-c2ccccc2)ccc1=O
239 to 240 °C

What melting point value was documented for this compound, NC(=O)c1cc(NC(=O)c2ccccc2)ccc1SSc1ccc(NC(=O)c2ccccc2)cc1C(N)=O ?
273 to 274 °C

Recorded melting point for COc1ccc(-c2csc(Nc3ccccc3)n2)cc1OC , please?
170 to 174 °C

Suppose we examine the compound COCc1nc2c3c(ccn2c1C)C(=O)[C@H](O)[C@@H](c1ccccc1)N3 ; what melting point value has been reported?
168 to 173 °C

// query melting point value for entry COc1ccc(OC)c2c1C(=O)c1ccc(C)cc1C2OC (stereo not given)
177 to 179 °C

So what's the measured melting point for this one? CC(C)N(C)c1nccc(Oc2ccc(NC(=O)c3cc(F)cc(N4CCOCC4)c3)c3ccccc23)n1
94 to 96 °C

Returns the measured melting point for the input compound. Input: Cn1cncc1C1SCCCS1
112 °C

Quick check: melting point of CCNC(=O)N[C@H]1CC[C@H](CCN2CCN(c3cccc4c3CCC4)CC2)CC1 ?
198 to 200 °C

Dear colleague, I am looking for the recorded melting point of the following compound: CC12C=CC(=O)C=C1CCC1C2=CCC2(C)C(C(=O)CCl)=CCC12 (stereo not given)
136 to 138 °C

Look up melting point: CS(=O)c1cc(CCC(=O)OC(C)(C)C)cc(-c2nc(=O)c3ccccc3s2)n1 (stereo not given)
220 °C

Need melting point of O=C(O)c1cccc2c1CCc1cc(C(F)(F)F)ccc1S2 , thanks.
178 to 180 °C

// query melting point value for entry CC(NC(=O)Cc1cc(F)cc(F)c1)C(=O)NC1C(=O)NC(C)c2ccccc21 (stereo not given)
205 to 206 °C

Looking for the measured melting point of COc1cc2c(cc1OC)[C@@H]1CN(C)CC[C@@H]1N=C2c1cccc(C(F)(F)F)c1 (relative stereo) , can you help?
215 to 217 °C

What does the record list as melting point for CC(C)CN(CC(C)C)c1ccc(C(=O)c2ccccc2)cc1N ?
59 to 60 °C

Would you kindly share the measured melting point for O=C(O)c1ccnc(Br)c1 ?
214 °C

Query: melting point; subject: CC(NC(=O)C(N)Cc1ccccc1)C(=O)NCC(=O)NC(Cc1ccccc1)C(=O)NCC(=O)NC(CCCNC(=N)N)C(=O)O (stereo not given) (H-FAGFGR-OH; configuration not given here)
154 to 156 °C

Entry under review: COc1ccc(-c2ccc3cc(OC)ccc3c2)cc1 . Reported melting point?
190 °C
